Please respond with reported RF (Relative Fluorescence) of Transfection of C2C12 Cells for every item in the list.
Test system: C2C12 Cells
Experiment: Transfection of C2C12 cells with DOTMA/DOPE/peptide and eGFP plasmid, fluorescent plate reader
Format: cell-based, mouse
Conditions: DOTMA/DOPE 1:1 plus peptide with RRRRRRRRRRRR (SEQ ID NO: 109) at n terminus; EF1Alpha eGFP plasmid; 0.02 mL complex; 42 hours
Give bare numbers.

Before answering, review these 5 worked examples.
268 (GGFLKYTVSYDI; Peptidic transfection agent) [compound 268]: 2568
377 (TAGSCLRRFSTM; Peptidic transfection agent) [compound 377]: 1710
256 (RQVFQVAYIIIKA; Peptidic transfection agent) [compound 256]: 3207
357 (SETTVKYIFRLHE; Peptidic transfection agent) [compound 357]: 4506
341 (LRAHAVDVNG; Peptidic transfection agent) [compound 341]: 2141

I'm hoping you can list RF (Relative Fluorescence) of Transfection of C2C12 Cells for every substance here, please.
1. 230 (WQPPRARI; Peptidic transfection agent) [compound 230]
2. 336 (GEFYFDLRLKGDK; Peptidic transfection agent) [compound 336]
3. 205 (AASIKVAVSADR; Peptidic transfection agent) [compound 205]
4. 234 (YEKPGSPPREVVPRPRPGV; Peptidic transfection agent) [compound 234]

2606
9647
2102
681

---

Tested on: HuVec Cells
Test: Transfection of HuVec cells with DOTMA/DOPE/peptide and eGFP plasmid, fluorescent plate reader
Format: cell-based
Details: DOTMA/DOPE 1:1 plus peptide with RRRRRRRRRRRR (SEQ ID NO: 109) at n terminus; EF1Alpha eGFP plasmid; 0.01 mL complex; 42 hours
Protocol: Cells were plated to so that on the day of transfection the cells were 60-70% confluent in 96 well tissue culture plates. […] All solutions were at room temperature. […] Plates were read on a fluorescent plate reader. […] Other modes of analysis, for example quantification with B-galactosidase or luciferase reports plasmids can also be used. […]
reportedProperty: RF (Relative Fluorescence) of Transfection of HuVec Cells
Answers are plain numbers.

# per-item lookup of RF (Relative Fluorescence) of Transfection of HuVec Cells; items listed below
1. 344 (KGHRGF; Peptidic transfection agent) [compound 344]
2. 350 (SIGFRGDGQTC; Peptidic transfection agent) [compound 350]
3. 357 (SETTVKYIFRLHE; Peptidic transfection agent) [compound 357]
4. 323 (HQQDLGTAGSCLRKFSTMFLF; Peptidic transfection agent) [compound 323]
5. 351 (LNRQELFPFG; Peptidic transfection agent) [compound 351]
6. 371 (GPAGKDGEAGAQG; Peptidic transfection agent) [compound 371]
7. 328 (NWRHISYITRFG; Peptidic transfection agent) [compound 328]

11867
13163
6009
12815
15379
10669
3614

// for each substance in input: emit RF (Relative Fluorescence) of Transfection of HuVec Cells
1. 365 (ISRCQVCMKKRH; Peptidic transfection agent) [compound 365]
2. 353 (KKQRFRHRNRKGYRSQ; Peptidic transfection agent) [compound 353]
3. 354 (SINNTAVMQRLT; Peptidic transfection agent) [compound 354]
4. 352 (RIQNLLKITNLRIKFVK; Peptidic transfection agent) [compound 352]
5. 229 (PPFLMLLKGSTR; Peptidic transfection agent) [compound 229]

[14764, 8772, 19284, 3130, 5452]
